Data origin: ChEMBL document CHEMBL1123427

Organism: Rattus norvegicus
assaySummary: Dose that inhibited cataleptic effect of haloperidol in rat by 50%
Assay type: functional
Residues, ends and D or L forms follow the SMILES beside them.
readoutType: ED50 (mg/kg)

INSERT INTO results (molecule, readouttype, unitstext, recordednumber) VALUES
  ('CC(C)C[C@H](NC(=O)[C@@H]1CCC(=O)N1)C(=O)N1CSC[C@H]1C(N)=O (HELM PEPTIDE1{[Glp].L.[O=C([C@@H]1CSCN1[*:1])[*:2]].[am]}$$$$V2.0)', 'ED50', 'mg/kg', 31.4),
  ('CCC[C@H](NC(=O)[C@@H]1CCCC(=O)N1)C(=O)N1CSC[C@H]1C(N)=O', 'ED50', 'mg/kg', 60.3),
  ('CC(C)C[C@H](NC(=O)[C@@H]1CCC(=O)N1)C(=O)N1CCCC[C@H]1C(N)=O (HELM PEPTIDE1{[Glp].L.[O=C([C@@H]1CCCCN1[*:1])[*:2]].[am]}$$$$V2.0)', 'ED50', 'mg/kg', 38.5),
  ('CCC[C@H](NC(=O)[C@@H]1CCC(=O)N1)C(=O)N1CSC[C@H]1C(N)=O (HELM PEPTIDE1{[Glp].[Nva].[O=C([C@@H]1CSCN1[*:1])[*:2]].[am]}$$$$V2.0)', 'ED50', 'mg/kg', 56),
  ('CCC[C@H](NC(=O)[C@@H]1CCCC(=O)N1)C(=O)N1CCC[C@H]1C(N)=O', 'ED50', 'mg/kg', 10.6);

----------
Species on record: Mus musculus
assaySummary: Reduction of hexobarbital induced sleeping time in mice.
Type: functional
Residues, ends and D or L forms follow the SMILES beside them.
readoutType: Sleeping time (min)

INSERT INTO measurements (molecule, unitstext, recordednumber) VALUES
  ('CC(C)C[C@H](NC(=O)[C@@H]1CCC(=O)N1)C(=O)N1CSC[C@H]1C(N)=O (HELM PEPTIDE1{[Glp].L.[O=C([C@@H]1CSCN1[*:1])[*:2]].[am]}$$$$V2.0)', 'min', 17.2),
  ('CCC[C@H](NC(=O)[C@@H]1CCC(=O)N1)C(=O)N[C@H](CCSC)C(N)=O', 'min', 46.1),
  ('CC(C)C[C@H](NC(=O)[C@@H]1CCCC(=O)N1)C(=O)N1CCC[C@H]1C(N)=O', 'min', 16.4),
  ('CC(C)C[C@H](NC(=O)[C@@H]1CCC(=O)N1)C(=O)N1CCCC[C@H]1C(=O)O (HELM PEPTIDE1{[Glp].L.[O=C(O)[C@@H]1CCCCN1[*:1]]}$$$$V2.0)', 'min', 33.3);

----------
Parameter: Sleeping time. Scope: all listed entries.
Organism: Mus musculus
assaySummary: Reduction of hexobarbital induced sleeping time in mice.
Assay type: functional
Residues, ends and D or L forms follow the SMILES beside them.
readoutType: Sleeping time (min)

INSERT INTO measurements (compound, readouttype, recordednumber) VALUES
  ('CCC[C@H](NC(=O)[C@@H]1CCC(=O)N1)C(=O)N[C@H](C(N)=O)[C@@H](C)CC (HELM PEPTIDE1{[Glp].[Nva].I.[am]}$$$$V2.0)', 'Sleeping time', 47.7),
  ('CC(C)C[C@H](NC(=O)[C@@H]1CCC(=O)N1)C(=O)N1CCCC[C@H]1C(N)=O (HELM PEPTIDE1{[Glp].L.[O=C([C@@H]1CCCCN1[*:1])[*:2]].[am]}$$$$V2.0)', 'Sleeping time', 16.6),
  ('CC(C)C[C@H](NC(=O)[C@@H]1CCC(=O)N1)C(=O)NCC(N)=O (HELM PEPTIDE1{[Glp].L.G.[am]}$$$$V2.0)', 'Sleeping time', 35.8),
  ('CC(C)C[C@H](NC(=O)[C@@H]1CCCN1)C(=O)N1CCC[C@H]1C(N)=O (H-Pro-Leu-Pro-NH2)', 'Sleeping time', 65.6),
  ('CC(=O)N1CCC[C@H]1C(=O)N[C@@H](CC(C)C)C(=O)N1CCC[C@H]1C(N)=O (Ac-Pro-Leu-Pro-NH2)', 'Sleeping time', 37.6),
  ('CCC[C@H](NC(=O)[C@@H]1CCCC(=O)N1)C(=O)N1CSC[C@H]1C(N)=O', 'Sleeping time', 23.6),
  ('CC(C)C[C@H](NC(=O)[C@@H]1CCC(=O)O1)C(=O)N1CCC[C@H]1C(N)=O', 'Sleeping time', 36.8),
  ('CCC[C@H](NC(=O)[C@@H]1CCCC(=O)N1)C(=O)N1CCC[C@H]1C(N)=O', 'Sleeping time', 19.7),
  ('NC(=O)[C@@H]1CCCN1C(=O)[C@H](Cc1c[nH]cn1)NC(=O)[C@@H]1CCC(=O)N1', 'Sleeping time', 24.8);
